system: MDA-MB-468 spheroids with HUVEC/MSC, viability; assay: Anticancer human tumor MDA-MB-468 cell line growth inhibition [PI3K]; details: curve of first compound; second compound 10 µM;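 note: spheroids exposed to agents for seven days before readout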
IC50 values by entry

Compound	IC50
CC1(C)CCC(Nc2ncc(C(F)(F)F)c(-c3c[nH]c4c(P(C)(C)=O)c(C#N)ccc34)n2)CN1 (stereo unspecified) + Cc1nc(NC(=O)N2CCCC2C(N)=O)sc1-c1ccnc(C(C)(C)C(F)(F)F)c1	< 31.6 nM
Cn1ncc(Cl)c1-c1cc(C(=O)NC(CN)Cc2cccc(F)c2)sc1Cl (stereo unspecified) + Cc1nc(NC(=O)N2CCCC2C(N)=O)sc1-c1ccnc(C(C)(C)C(F)(F)F)c1	< 31.6 nM
Cn1cnc2c(F)c(Nc3ccc(Br)cc3Cl)c(C(=O)NOCCO)cc21 + Cc1nc(NC(=O)N2CCCC2C(N)=O)sc1-c1ccnc(C(C)(C)C(F)(F)F)c1	< 9.49 nM
CC(C)NCC(C(=O)N1CCN(c2ncnc3c2C(C)CC3O)CC1)c1ccc(Cl)cc1 (stereo unspecified) + CC(Nc1ncnc2nc[nH]c12)c1cc2cccc(Cl)c2c(=O)n1-c1ccccc1	< 31.6 nM
CNC(=O)c1ccc(N2C(=S)N(c3ccc(C#N)c(C(F)(F)F)c3)C(=O)C2(C)C)cc1F + Cc1nc(NC(=O)N2CCCC2C(N)=O)sc1-c1ccnc(C(C)(C)C(F)(F)F)c1	< 31.6 nM
CC1(C)CCC(Nc2ncc(C(F)(F)F)c(-c3c[nH]c4c(P(C)(C)=O)c(C#N)ccc34)n2)CN1 (stereo unspecified) + CC(Nc1ncnc2nc[nH]c12)c1cc2cccc(Cl)c2c(=O)n1-c1ccccc1	< 31.6 nM
C=CC(=O)N1CCN(c2nc(=O)n(-c3c(C)ccnc3C(C)C)c3nc(-c4c(O)cccc4F)c(F)cc23)C(C)C1 (stereo unspecified) + Cc1nc(NC(=O)N2CCCC2C(N)=O)sc1-c1ccnc(C(C)(C)C(F)(F)F)c1	< 31.6 nM
Cn1cnc2c(F)c(Nc3ccc(Br)cc3Cl)c(C(=O)NOCCO)cc21 + CC(Nc1ncnc2nc[nH]c12)c1cc2cccc(Cl)c2c(=O)n1-c1ccccc1	< 9.49 nM
CC(C)NCC(C(=O)N1CCN(c2ncnc3c2C(C)CC3O)CC1)c1ccc(Cl)cc1 (stereo unspecified) + Cc1nc(NC(=O)N2CCCC2C(N)=O)sc1-c1ccnc(C(C)(C)C(F)(F)F)c1	< 31.6 nM
CNC(=O)c1ccc(N2C(=S)N(c3ccc(C#N)c(C(F)(F)F)c3)C(=O)C2(C)C)cc1F + CC(Nc1ncnc2nc[nH]c12)c1cc2cccc(Cl)c2c(=O)n1-c1ccccc1	< 31.6 nM
CC1(C)CCC(CN2CCN(c3ccc(C(=O)NS(=O)(=O)c4ccc(NCC5CCOCC5)c([N+](=O)[O-])c4)c(Oc4cnc5[nH]ccc5c4)c3)CC2)=C(c2ccc(Cl)cc2)C1 + CC(Nc1ncnc2nc[nH]c12)c1cc2cccc(Cl)c2c(=O)n1-c1ccccc1	< 31.6 nM

----------
test system: MDA-MB-468 spheroids with HUVEC/MSC, viability; test: Anticancer human tumor MDA-MB-468 cell line growth inhibition [PI3K]; conditions: second compound 0.0316 µM; first compound 0.001 µM; stronger effect = lower value;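 note: spheroids exposed to agents for seven days before readout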
Friendly reminder: viability, T/C below 90% is rule met, at or above is rule not met.

In [3]: df
Out[3]:
                                   compound  class_assignment
0  CC(=O)c1c(C)c2cnc(Nc3ccc(N4CCNCC4)cn3)nc2n(C2CCCC2)c1=O + CC(Nc1ncnc2nc[nH]c12)c1cc2cccc(Cl)c2c(=O)n1-c1ccccc1      rule not met
1  Cn1ncnc1[C@H]1c2n[nH]c(=O)c3cc(F)cc(c23)N[C@@H]1c1ccc(F)cc1 + Cc1nc(NC(=O)N2CCCC2C(N)=O)sc1-c1ccnc(C(C)(C)C(F)(F)F)c1          rule met
2  Cn1ncnc1[C@H]1c2n[nH]c(=O)c3cc(F)cc(c23)N[C@@H]1c1ccc(F)cc1 + COc1c(OCCCN2CCOCC2)ccc2c3n(c(=NC(=O)c4cnc(N)nc4)nc12)CCN3          rule met
3  CC(=O)c1c(C)c2cnc(Nc3ccc(N4CCNCC4)cn3)nc2n(C2CCCC2)c1=O + CC(Nc1ccc2c(c1)OCCn1cc(N3C(=O)OCC3C(F)F)nc1-2)C(N)=O      rule not met
